Listing: MIC of selected compounds
System: Streptococcus pneumoniae
procedure details: Minimum inhibitory concentration against Streptococcus pneumoniae L 44
Type: functional
Answer format: numeric, µg/mL implied, no suffix.

Please review the entries below; each comes with its answer.
- structure as smiles: "N[C@H]1C(=O)N[C@@H]2Cc3ccc(c(Cl)c3)Oc3cc4cc(c3O)Oc3ccc(cc3Cl)[C@@H](O)[C@@H]3NC(=O)[C@H](NC(=O)[C@@H]4NC(=O)[C@@H](NC2=O)c2cc(O)cc(c2)Oc2cc1ccc2O)c1ccc(O)c(c1)-c1c(O)cc(O)cc1[C@@H](C(=O)NCCN1CCCCNCCCC1)NC3=O"
  system name: "Streptococcus pneumoniae"
  MIC [µg/mL]: 0.125
- structure as smiles: "CC(=O)N[C@@H]1[C@H](O[C@@H]2c3ccc(c(Cl)c3)Oc3cc4cc(c3O[C@@H]3O[C@@H](CO)[C@@H](O)[C@H](O)[C@@H]3NC(=O)CCCCCCC(C)C)Oc3ccc(cc3Cl)C[C@H]3NC(=O)[C@H](N)c5ccc(O)c(c5)Oc5cc(O)cc(c5)[C@H](NC3=O)C(=O)N[C@H]4C(=O)N[C@H]3C(=O)N[C@@H]2C(=O)N[C@H](C(=O)NCCCN2CCCCNCCCC2)c2cc(O)cc(O[C@H]4O[C@H](CO)[C@@H](O)[C@@H](O)[C@@H]4O)c2-c2cc3ccc2O)O[C@@H](CO)[C@@H](O)[C@@H]1O"
  system name: "Streptococcus pneumoniae"
  MIC [µg/mL]: 0.125
- structure as smiles: "CC(=O)N[C@@H]1[C@H](O[C@@H]2c3ccc(c(Cl)c3)Oc3cc4cc(c3O[C@@H]3O[C@@H](CO)[C@@H](O)[C@H](O)[C@@H]3NC(=O)CCCCCCC(C)C)Oc3ccc(cc3Cl)C[C@H]3NC(=O)[C@H](N)c5ccc(O)c(c5)Oc5cc(O)cc(c5)[C@H](NC3=O)C(=O)N[C@H]4C(=O)N[C@H]3C(=O)N[C@@H]2C(=O)N[C@H](C(=O)NCCCNCCCCNCCCN)c2cc(O)cc(O[C@H]4O[C@H](CO)[C@@H](O)[C@@H](O)[C@@H]4O)c2-c2cc3ccc2O)O[C@@H](CO)[C@@H](O)[C@@H]1O"
  system name: "Streptococcus pneumoniae"
  MIC [µg/mL]: 0.125
- structure as smiles: "NCCCN1CCCCN(CCCNC(=O)[C@H]2NC(=O)[C@H]3NC(=O)[C@H](NC(=O)[C@@H]4NC(=O)[C@H]5NC(=O)[C@@H](Cc6ccc(c(Cl)c6)Oc6cc4cc(c6O)Oc4ccc(cc4Cl)[C@H]3O)NC(=O)[C@H](N)c3ccc(O)c(c3)Oc3cc(O)cc5c3)c3ccc(O)c(c3)-c3c(O)cc(O)cc32)CCCC1"
  system name: "Streptococcus pneumoniae"
  MIC [µg/mL]: 0.125

Given CC(=O)N[C@@H]1[C@H](O[C@@H]2c3ccc(c(Cl)c3)Oc3cc4cc(c3O[C@@H]3O[C@@H](CO)[C@@H](O)[C@H](O)[C@@H]3NC(=O)CCCCCCC(C)C)Oc3ccc(cc3Cl)C[C@H]3NC(=O)[C@H](N)c5ccc(O)c(c5)Oc5cc(O)cc(c5)[C@H](NC3=O)C(=O)N[C@H]4C(=O)N[C@H]3C(=O)N[C@@H]2C(=O)N[C@H](C(=O)NCCCN2CCCCN(CCCN)CCCC2)c2cc(O)cc(O[C@H]4O[C@H](CO)[C@@H](O)[C@@H](O)[C@@H]4O)c2-c2cc3ccc2O)O[C@@H](CO)[C@@H](O)[C@@H]1O , state its recorded MIC.
0.125

Consider next the compound CNCCCN(C)C(=O)[C@H]1NC(=O)[C@H]2NC(=O)[C@H](NC(=O)[C@@H]3NC(=O)[C@H]4NC(=O)[C@@H](Cc5ccc(c(Cl)c5)Oc5cc3cc(c5O)Oc3ccc(cc3Cl)[C@H]2O)NC(=O)[C@H](N)c2ccc(O)c(c2)Oc2cc(O)cc4c2)c2ccc(O)c(c2)-c2c(O)cc(O)cc21 in the same way.
0.125

Consider next the compound CC(=O)N[C@@H]1[C@H](O[C@@H]2c3ccc(c(Cl)c3)Oc3cc4cc(c3O[C@@H]3O[C@@H](CO)[C@@H](O)[C@H](O)[C@@H]3NC(=O)CCCCCCC(C)C)Oc3ccc(cc3Cl)C[C@H]3NC(=O)[C@H](N)c5ccc(O)c(c5)Oc5cc(O)cc(c5)[C@H](NC3=O)C(=O)N[C@H]4C(=O)N[C@H]3C(=O)N[C@@H]2C(=O)N[C@H](C(=O)N2CCNCCNCCNCCNCCNCC2)c2cc(O)cc(O[C@H]4O[C@H](CO)[C@@H](O)[C@@H](O)[C@@H]4O)c2-c2cc3ccc2O)O[C@@H](CO)[C@@H](O)[C@@H]1O in the same way.
0.063

---

Listing: MIC of selected compounds
Tested on: Staphylococcus aureus
procedure details: Minimum inhibitory concentration against Staphylococcus aureus L 165
Assay type: functional
Answer format: numeric, µg/mL implied, no suffix.

- structure as smiles: "CN(C)CCCN1CCCCN(C(=O)[C@H]2NC(=O)[C@H]3NC(=O)[C@H](NC(=O)[C@@H]4NC(=O)[C@H]5NC(=O)[C@@H](Cc6ccc(c(Cl)c6)Oc6cc4cc(c6O)Oc4ccc(cc4Cl)[C@H]3O)NC(=O)[C@H](N)c3ccc(O)c(c3)Oc3cc(O)cc5c3)c3ccc(O)c(c3)-c3c(O)cc(O)cc32)CCCC1"
  observed measurement: 0.063

Given NCCCNCCCNC(=O)[C@H]1NC(=O)[C@H]2NC(=O)[C@H](NC(=O)[C@@H]3NC(=O)[C@H]4NC(=O)[C@@H](Cc5ccc(c(Cl)c5)Oc5cc3cc(c5O)Oc3ccc(cc3Cl)[C@H]2O)NC(=O)[C@H](N)c2ccc(O)c(c2)Oc2cc(O)cc4c2)c2ccc(O)c(c2)-c2c(O)cc(O)cc21 , state its recorded MIC.
0.063

Consider next the compound CC(=O)N[C@@H]1[C@H](O[C@@H]2c3ccc(c(Cl)c3)Oc3cc4cc(c3O[C@@H]3O[C@@H](CO)[C@@H](O)[C@H](O)[C@@H]3NC(=O)CCCCCCC(C)C)Oc3ccc(cc3Cl)C[C@H]3NC(=O)[C@H](N)c5ccc(O)c(c5)Oc5cc(O)cc(c5)[C@H](NC3=O)C(=O)N[C@H]4C(=O)N[C@H]3C(=O)N[C@@H]2C(=O)N[C@H](C(=O)NCCCNCCCCN)c2cc(O)cc(O[C@H]4O[C@H](CO)[C@@H](O)[C@@H](O)[C@@H]4O)c2-c2cc3ccc2O)O[C@@H](CO)[C@@H](O)[C@@H]1O in the same way.
0.125

---

Listing: Ka of selected compounds
procedure details: Association constant to Ac2-L-Lys-D-Ala-D-Ala determined at pH 9; Value ranges from (9.5E4-3.5E5)
Answer format: numeric, M⁻¹ implied, no suffix.

Please review the entries below; each comes with its answer.
- structure as smiles: "CC(=O)N[C@@H]1[C@H](O[C@@H]2c3ccc(c(Cl)c3)Oc3cc4cc(c3O[C@@H]3O[C@@H](CO)[C@@H](O)[C@H](O)[C@@H]3NC(=O)CCCCCCC(C)C)Oc3ccc(cc3Cl)C[C@H]3NC(=O)[C@H](N)c5ccc(O)c(c5)Oc5cc(O)cc(c5)[C@H](NC3=O)C(=O)N[C@H]4C(=O)N[C@H]3C(=O)N[C@@H]2C(=O)N[C@H](C(=O)NCCNCCNCCNCCNCCN)c2cc(O)cc(O[C@H]4O[C@H](CO)[C@@H](O)[C@@H](O)[C@@H]4O)c2-c2cc3ccc2O)O[C@@H](CO)[C@@H](O)[C@@H]1O"
  Ka / M⁻¹: 350000
- structure as smiles: "CC(=O)N[C@@H]1[C@H](O[C@@H]2c3ccc(c(Cl)c3)Oc3cc4cc(c3O[C@@H]3O[C@@H](CO)[C@@H](O)[C@H](O)[C@@H]3NC(=O)CCCCCCC(C)C)Oc3ccc(cc3Cl)C[C@H]3NC(=O)[C@H](N)c5ccc(O)c(c5)Oc5cc(O)cc(c5)[C@H](NC3=O)C(=O)N[C@H]4C(=O)N[C@H]3C(=O)N[C@@H]2C(=O)N[C@H](C(=O)N2CCCCN(CCCN(C)C)CCCC2)c2cc(O)cc(O[C@H]4O[C@H](CO)[C@@H](O)[C@@H](O)[C@@H]4O)c2-c2cc3ccc2O)O[C@@H](CO)[C@@H](O)[C@@H]1O"
  Ka / M⁻¹: 350000

Field: next compound
Given CC(=O)N[C@@H]1[C@H](O[C@@H]2c3ccc(c(Cl)c3)Oc3cc4cc(c3O[C@@H]3O[C@@H](CO)[C@@H](O)[C@H](O)[C@@H]3NC(=O)CCCCCCC(C)C)Oc3ccc(cc3Cl)C[C@H]3NC(=O)[C@H](N)c5ccc(O)c(c5)Oc5cc(O)cc(c5)[C@H](NC3=O)C(=O)N[C@H]4C(=O)N[C@H]3C(=O)N[C@@H]2C(=O)N[C@H](C(=O)N2CCNCCNCCNCCNCCNCC2)c2cc(O)cc(O[C@H]4O[C@H](CO)[C@@H](O)[C@@H](O)[C@@H]4O)c2-c2cc3ccc2O)O[C@@H](CO)[C@@H](O)[C@@H]1O , state its recorded Ka.
350000
